System: HT-29
Experiment: NCI tumour cell line growth inhibition, 48 h
Activity calls are given as the source filed them. No stated cut-off is given here; in the data, active = GI50 up to about 1.1 µM and inactive = higher.
Would you mind telling me the reported GI50 of each entry?

Use the examples below as a reference point.
compound=Cc1cc(C)nc(NS(=O)(=O)c2ccc(Nc3c4ccccc4nc4c(C(=O)Nc5ccc(S(=O)(=O)N=C(N)N)cc5)cccc34)cc2)n1 parameter=GI50 result="> 100 µM (inactive)"
compound="C/C(=N\\NC(=S)NC(CCC(=O)O)C(=O)O)c1cnccn1 (centres undefined)" parameter=GI50 result="> 100 µM (inactive)"
compound=COc1cc2c(cc1OCCCOS(C)(=O)=O)N=C[C@@H]1CCCN1C2=O parameter=GI50 result="> 100 µM (inactive)"
compound=CC1=C(/C(C)=N/NS(=O)(=O)c2ccc(C)cc2)Sc2ccccc2N1 parameter=GI50 result="98.6 µM (inactive)"
compound=CCOC(=O)c1cn(CC)c(=O)n2c1nc1ccccc12 parameter=GI50 result="36.7 µM (inactive)"

I have 6 compounds here; please give me GI50 for each one.
1. CC(C)(C)C1=Cc2cc3cc(C(C)(C)C)[nH]c(=O)c3cc2S(=O)(=O)N1
2. COc1ccc(C(C#N)Cc2cc(OC)c(OC)c(OC)c2)cc1 (centres undefined)
3. O=[N+]([O-])c1cccc(C2SCc3nc4ccccc4n32)c1 (centres undefined)
4. Cc1cnc2sn(-c3ccc([N+](=O)[O-])cc3)c(=O)c2c1
5. COCCOC(=O)c1c(C)[n+]([O-])c2cc(Cl)c(Cl)cc2[n+]1[O-]
6. CC(Oc1ccc(OCC2CCCCC2)cc1)C(=O)OCC(=O)c1ccc(-c2ccccc2)cc1 (centres undefined)

### Response
22.9 µM (inactive)
33 µM (inactive)
> 100 µM (inactive)
> 100 µM (inactive)
18.7 µM (inactive)
> 100 µM (inactive)

I have 6 compounds here; please give me GI50 for each one.
1. COC(=O)/C(=N\Nc1nnc(C)n1N)C(C#N)c1ccc(Cl)cc1 (centres undefined)
2. CSc1ccc(Cc2cc(C(C)(C)C)cc(C(C)(C)C)c2O)cc1
3. O=C(O)Cn1ccc(=O)c2c([N+](=O)[O-])cccc21
4. CCCN1C(=O)/C(=C\c2ccc(OC)c(OC)c2)S/C1=N\c1ccccc1
5. O=C1c2ccccc2C(=O)c2c1ccc1c2OCO1
6. O=C1C(Cl)=C(N(C(=O)c2ccccc2)C(=O)c2ccccc2)C(=O)c2ccccc21

### Response
> 100 µM (inactive)
13.8 µM (inactive)
> 100 µM (inactive)
> 100 µM (inactive)
> 100 µM (inactive)
24.7 µM (inactive)
